Recorded inhibition for the following compounds
- MEASURED_TARGET: Ubiquitin-conjugating enzyme E2 N (Homo sapiens) (UniProt P61088)
- Sequence (P61088 whole entry, looked up): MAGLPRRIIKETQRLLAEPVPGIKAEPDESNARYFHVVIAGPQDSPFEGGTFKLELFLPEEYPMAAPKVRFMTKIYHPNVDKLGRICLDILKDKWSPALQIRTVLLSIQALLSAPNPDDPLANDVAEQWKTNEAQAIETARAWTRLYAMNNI
- EXPERIMENT: retested blockers of UBC13 chain formation – biochemical, TR-FRET, single concentration, confirmation (AID 488859)
- CONDITION_PARAMETERS: UBC13 polyubiquitination, at 10 µM, stronger effect = higher value
About 970 (69%) of roughly 1,400 compounds were called active. Not shown: some 5% with an inconclusive outcome. The set was probably picked from earlier hits. Only a sample is shown.
Use % as the unit, but write only the number.

Known results for compounds:
{"COMPOUND": "CCN(CC)CCC(c1cc(OC)c(OC)c(OC)c1)c1c(OC)cc(OC)c2c(-c3ccccc3)cc(=O)oc12 (stereo unspecified)", "UNIT_TAG": "%", "inhibition": 35.1}
{"COMPOUND": "C#CCOCCOCCOCCNc1nc(N2CCN(C(=O)CCCCCCCCCCNC(=O)[C@H](CCCCN)n3cc(C)nn3)CC2)nc(N2CCN(C(=O)CCCCCCCCCCNC(=O)[C@H](CO)n3cc(CCCSC)nn3)CC2)n1", "UNIT_TAG": "%", "inhibition": 121}
{"COMPOUND": "C#CCOCCOCCOCCNc1nc(N2CCN(C(=O)CCCCCCCCCCNC(=O)Cn3cc(CCCCCN)nn3)CC2)nc(N2CCN(C(=O)CCCCCCCCCCNC(=O)[C@H](CO)n3cc(CCCSC)nn3)CC2)n1", "UNIT_TAG": "%", "inhibition": 129}

// query Endpoint output: inhibition of `Cc1ccc(C(=O)N/C(=C/c2ccc(-c3cccc([N+](=O)[O-])c3)o2)C(=O)NCCCN(C)C)cc1` . Value?
// result 78

// query Record request: inhibition value, item `COc1ccc2sc(-c3ccc(S(C)(=O)=O)cc3)c(C#Cc3cncn3C)c2c1`
// result 29.5

// query Given the entry `C#CCOCCOCCOCCNc1nc(N2CCN(C(=O)CCCCCCCCCCNC(=O)[C@H]([C@@H](C)CC)n3cc(CCCCN=C(N)N)nn3)CC2)nc(N2CCN(C(=O)CCCCCCCCCCNC(=O)[C@H](CO)n3cc(CCCSC)nn3)CC2)n1` , report its measured inhibition.
// result 121
